Target: T1, recombinant human PAD4 (human, UniProt Q9UM07 1-663)
T1 construct: also called rhPAD4; hPAD4
T1 sequence (Q9UM07 whole entry): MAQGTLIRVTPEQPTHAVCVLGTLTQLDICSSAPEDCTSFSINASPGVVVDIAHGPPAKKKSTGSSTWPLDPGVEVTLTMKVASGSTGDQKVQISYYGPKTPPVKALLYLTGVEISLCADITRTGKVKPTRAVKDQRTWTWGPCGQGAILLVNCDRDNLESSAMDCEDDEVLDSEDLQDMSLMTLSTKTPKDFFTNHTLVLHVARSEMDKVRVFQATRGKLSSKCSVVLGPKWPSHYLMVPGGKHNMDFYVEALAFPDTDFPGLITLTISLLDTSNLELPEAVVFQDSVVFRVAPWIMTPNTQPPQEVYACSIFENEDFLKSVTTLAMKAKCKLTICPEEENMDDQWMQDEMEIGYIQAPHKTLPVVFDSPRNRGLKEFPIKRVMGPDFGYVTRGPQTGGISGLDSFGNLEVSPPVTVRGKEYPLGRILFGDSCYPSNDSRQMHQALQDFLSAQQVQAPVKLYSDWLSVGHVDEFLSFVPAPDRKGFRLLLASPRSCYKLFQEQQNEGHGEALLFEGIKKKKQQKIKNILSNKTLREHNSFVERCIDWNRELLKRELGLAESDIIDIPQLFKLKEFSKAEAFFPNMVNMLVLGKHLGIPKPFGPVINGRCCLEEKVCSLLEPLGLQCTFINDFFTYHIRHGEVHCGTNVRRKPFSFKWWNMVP
Assay: SPR 37 C, captured antibody, PAD4 analyte, 2 mM EDTA
VALUE_KIND: koff (s⁻¹)
Express the result in s⁻¹ but write the number alone.

INPUT: Looking for the measured koff of hz13-2 (antibody, V domains shown, light constant region not tied to this antibody) VH: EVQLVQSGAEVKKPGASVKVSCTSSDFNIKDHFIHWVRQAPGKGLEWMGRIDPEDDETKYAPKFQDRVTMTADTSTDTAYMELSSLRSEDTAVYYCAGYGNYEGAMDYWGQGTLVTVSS VL: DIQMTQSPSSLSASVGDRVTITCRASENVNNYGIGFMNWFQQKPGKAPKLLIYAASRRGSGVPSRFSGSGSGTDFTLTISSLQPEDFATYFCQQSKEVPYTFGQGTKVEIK , can you help?
OUTPUT: 0.00025
